ϕ (quantum yield) by entry:
Conditions: PBS, pH 7.4
Reply: number alone, nothing else.

So for Cc1ccccc1C1=C2C=CC(=[N+](C)C)C=C2[Si](C)([C@H]2CC3C=CC2C3)c2cc(N(C)C)ccc21 (some centres unmarked) , the logged ϕ (quantum yield) turned out to be 0.38

Next:
So for Cc1ccccc1C1=c2cc3c(cc2[Si](C)(C)c2cc4c(cc21)CCN4C)=[N+](C)CC3 [Compound 020, reference compound] , the logged ϕ (quantum yield) turned out to be 0.17

So for COc1cccc(OC)c1C1=C2C=CC(=[N+](C)C)C=C2[Si](C)(CCCCl)c2cc(N(C)C)ccc21 (centres unmarked) , the logged ϕ (quantum yield) turned out to be 0.38

So for `CN(C)c1ccc2c(c1)[Si@](C)(CCCN=[N+]=[N-])c1cc(N(C)C)ccc1[C@]21OC(=O)c2ccccc21` , the logged ϕ (quantum yield) turned out to be 0.43

So for `C=C[Si]1(C=C)c2cc3c(cc2C(c2ccccc2C)=c2cc4c(cc21)=[N+](C)CC4)CCN3C` , the logged ϕ (quantum yield) turned out to be 0.13
